System: RPMI-8402 (T-Lymphoblastic Leukemia)
methodNotes: Bliss excess, mean over the matrix (fraction); higher = more synergy
Each entry below carries its recorded Bliss excess.
Give your answer as a number; write no unit.

Record excerpt, results attached:
molecule: N#Cc1cnc(Nc2cc(NC[C@H]3CNCCO3)c(C(F)(F)F)cn2)cn1 [SRA737] + O=c1[nH]cc(F)c(=O)[nH]1 [5-Fluorouracil] (first compound max 10 µM, 7x7, partner max 20 µM)
readoutNumber: -0.0445

molecule: COc1cccc(OCCCN)c1-c1cc(Nc2cnc(C#N)cn2)n[nH]1 [Prexasertib] + Cc1cc2ncnn2cc1Nc1ncc2c(n1)n(C1CCOCC1)c(=O)n2C [AZD7648] (first compound max 1 µM, 7x7, partner max 10 µM)
readoutNumber: -0.0127

Now look at this entry.
What value of Bliss excess has been recorded for this entry: Cc1c2c(nn1C)CSCc1cc(n(C)n1)CSc1cc(c3ccccc3c1)OCCCc1c(C(=O)O)n(C)c3c-2c(Cl)ccc13 [AZD5991] + CC(=O)O[C@H]1C(=O)[C@@]2(C)[C@H]([C@H](OC(=O)c3ccccc3)[C@]3(O)C[C@H](OC(=O)[C@H](O)[C@@H](NC(=O)c4ccccc4)c4ccccc4)C(C)=C1C3(C)C)[C@]1(OC(C)=O)CO[C@@H]1C[C@@H]2O [Paclitaxel] (first compound max 1 µM, 7x7, partner max 3 µM) 0.0139

* * *

Tested on: NCI-H1975 (Lung Adenocarcinoma)
methodNotes: combination Emax (second highest fraction inhibited in the dose matrix, 72 h); higher = more inhibition; extreme values may be limits of the assay
Measured combination Emax, listed per entry for reference.
// return a plain number; no unit text

compound: CC1(C)CCC(CN2CCN(c3ccc(C(=O)NS(=O)(=O)c4ccc(NCC5CCOCC5)c([N+](=O)[O-])c4)c(Oc4cnc5[nH]ccc5c4)c3)CC2)=C(c2ccc(Cl)cc2)C1 [Venetoclax] + Cn1cnc2c(F)c(Nc3ccc(Br)cc3Cl)c(C(=O)NOCCO)cc21 [Selumetinib] (first compound max 1 µM, 7x7, partner max 3 µM)
combination Emax: 0.28

// moving on: another record for combination Emax
Look at this compound and give its reported combination Emax. CCc1c2c(nc3ccc(O)cc13)-c1cc3c(c(=O)n1C2)COC(=O)[C@]3(O)CC [SN-38] + O=C(c1cc(Cc2n[nH]c(=O)c3ccccc23)ccc1F)N1CCN(C(=O)C2CC2)CC1 [Olaparib] (first compound max 0.3 µM, 7x7, partner max 10 µM) 0.545

* * *

Tested on: SUP-HD1 (Hodgkin's Lymphoma)
methodNotes: Bliss excess, mean over the matrix (fraction); higher = more synergy
# thresholds on Bliss excess define classes: bucket A = under -0.03, bucket B = from -0.03 up to -0.02, bucket C = -0.02 and over

Record excerpt, results attached:
compound: C=CCn1c(=O)c2cnc(Nc3ccc(N4CCN(C)CC4)cc3)nc2n1-c1cccc(C(C)(C)O)n1 [AZD1775] + C[C@@H]1COCCN1C2=NC(=NC(=C2)C3(CC3)[S@](=N)(=O)C)C4=C5C=CNC5=NC=C4 [AZD6738] (first compound max 1 µM, partner max 10 µM)
qualitativeLabel: bucket B
--
compound: Cc1c2c(nn1C)CSCc1cc(n(C)n1)CSc1cc(c3ccccc3c1)OCCCc1c(C(=O)O)n(C)c3c-2c(Cl)ccc13 [AZD5991] + CC1(C)CCC(CN2CCN(c3ccc(C(=O)NS(=O)(=O)c4ccc(NCC5CCOCC5)c([N+](=O)[O-])c4)c(Oc4cnc5[nH]ccc5c4)c3)CC2)=C(c2ccc(Cl)cc2)C1 [Venetoclax] (first compound max 1 µM, 7x7, partner max 1 µM)
qualitativeLabel: bucket C
--
compound: Cn1cnc2c(F)c(Nc3ccc(Br)cc3Cl)c(C(=O)NOCCO)cc21 [Selumetinib] + C=CCn1c(=O)c2cnc(Nc3ccc(N4CCN(C)CC4)cc3)nc2n1-c1cccc(C(C)(C)O)n1 [AZD1775] (first compound max 10 µM, partner max 1 µM)
qualitativeLabel: bucket C
--
compound: Cc1cc2ncnn2cc1Nc1ncc2c(n1)n(C1CCOCC1)c(=O)n2C [AZD7648] + C[C@@H]1COCCN1C2=NC(=NC(=C2)C3(CC3)[S@](=N)(=O)C)C4=C5C=CNC5=NC=C4 [AZD6738] (first compound max 10 µM, 7x7, partner max 10 µM)
qualitativeLabel: bucket A
--
compound: C[C@@H](c1ccc2nccn2c1)n1nnc2ncc(-c3cnn(C)c3)nc21 [Savolitinib] + CN(CC[C@H](CSC1=CC=CC=C1)NC2=C(C=C(C=C2)S(=O)(=O)NC(=O)C3=CC=C(C=C3)N4CCC(CC4)[C@H](C5=CC=CC=C5C6=CC=C(C=C6)Cl)O)S(=O)(=O)C(F)(F)F)CCO [AZD4320] (first compound max 1 µM, 7x7, partner max 1 µM)
qualitativeLabel: bucket C

Please report the category associated with COc1nnc2ccc(N3CCC(c4ccc(OCCN5CCN(C)C(=O)[C@H]5C)cc4)CC3)nn12 [AZD5153] + CC1(C)CCC(CN2CCN(c3ccc(C(=O)NS(=O)(=O)c4ccc(NCC5CCOCC5)c([N+](=O)[O-])c4)c(Oc4cnc5[nH]ccc5c4)c3)CC2)=C(c2ccc(Cl)cc2)C1 [Venetoclax] (first compound max 1 µM, 7x7, partner max 1 µM) , nothing else. bucket A

Please answer likewise for CCN(CCO)CCCOc1ccc2c(Nc3cc(CC(=O)Nc4cccc(F)c4)[nH]n3)ncnc2c1 [AZD2811] + C=CCn1c(=O)c2cnc(Nc3ccc(N4CCN(C)CC4)cc3)nc2n1-c1cccc(C(C)(C)O)n1 [AZD1775] (first compound max 1 µM, partner max 1 µM) bucket B

Same question, CCN(CCO)CCCOc1ccc2c(Nc3cc(CC(=O)Nc4cccc(F)c4)[nH]n3)ncnc2c1 [AZD2811] + C[C@@H]1COCCN1C2=NC(=NC(=C2)C3(CC3)[S@](=N)(=O)C)C4=C5C=CNC5=NC=C4 [AZD6738] (first compound max 1 µM, 7x7, partner max 10 µM) this time bucket C

Can you handle Cc1c2c(nn1C)CSCc1cc(n(C)n1)CSc1cc(c3ccccc3c1)OCCCc1c(C(=O)O)n(C)c3c-2c(Cl)ccc13 [AZD5991] + Cc1cc2ncnn2cc1Nc1ncc2c(n1)n(C1CCOCC1)c(=O)n2C [AZD7648] (first compound max 1 µM, 7x7, partner max 10 µM) next? bucket A

Proceed to Cc1c2c(nn1C)CSCc1cc(n(C)n1)CSc1cc(c3ccccc3c1)OCCCc1c(C(=O)O)n(C)c3c-2c(Cl)ccc13 [AZD5991] + CCN(CCO)CCCOc1ccc2c(Nc3cc(CC(=O)Nc4cccc(F)c4)[nH]n3)ncnc2c1 [AZD2811] (first compound max 1 µM, 7x7, partner max 1 µM) bucket C

Could you do the same for CC1(C)CCC(CN2CCN(c3ccc(C(=O)NS(=O)(=O)c4ccc(NCC5CCOCC5)c([N+](=O)[O-])c4)c(Oc4cnc5[nH]ccc5c4)c3)CC2)=C(c2ccc(Cl)cc2)C1 [Venetoclax] + CN(C)CCCOc1ccc(-c2ccc3ncc4c(c3c2)n(C2CCOCC2)c(=O)n4C)cn1 [AZD0156] (first compound max 1 µM, 7x7, partner max 1 µM) , please? bucket A

Further, for CC(=O)c1c(C)c2cnc(Nc3ccc(N4CCNCC4)cn3)nc2n(C2CCCC2)c1=O [Palbociclib] + Cn1cnc2c(F)c(Nc3ccc(Br)cc3Cl)c(C(=O)NOCCO)cc21 [Selumetinib] (first compound max 10 µM, 7x7, partner max 10 µM) ? bucket A

* * *

Examples of molecules with documented combination Emax follow.
Tested on: HT-144 (Melanoma)
methodNotes: combination Emax (second highest fraction inhibited in the dose matrix, 72 h); higher = more inhibition; extreme values may be limits of the assay

molecule: Cc1c2c(nn1C)CSCc1cc(n(C)n1)CSc1cc(c3ccccc3c1)OCCCc1c(C(=O)O)n(C)c3c-2c(Cl)ccc13 [AZD5991] + CN(C)CCCOc1ccc(-c2ccc3ncc4c(c3c2)n(C2CCOCC2)c(=O)n4C)cn1 [AZD0156] (first compound max 1 µM, 7x7, partner max 1 µM)
result: 0.87
//
molecule: CC1(C)CCC(CN2CCN(c3ccc(C(=O)NS(=O)(=O)c4ccc(NCC5CCOCC5)c([N+](=O)[O-])c4)c(Oc4cnc5[nH]ccc5c4)c3)CC2)=C(c2ccc(Cl)cc2)C1 [Venetoclax] + Cc1cc2ncnn2cc1Nc1ncc2c(n1)n(C1CCOCC1)c(=O)n2C [AZD7648] (first compound max 1 µM, 7x7, partner max 10 µM)
result: 0.222
//
molecule: CC1(C)CCC(CN2CCN(c3ccc(C(=O)NS(=O)(=O)c4ccc(NCC5CCOCC5)c([N+](=O)[O-])c4)c(Oc4cnc5[nH]ccc5c4)c3)CC2)=C(c2ccc(Cl)cc2)C1 [Venetoclax] + C[C@@H](Nc1cc(F)cc(F)c1)c1cc(C(=O)N(C)C)cc2c(=O)cc(N3CCOCC3)oc12 [AZD8186] (first compound max 1 µM, 7x7, partner max 3 µM)
result: 0.159
//
molecule: Cc1cc2ncnn2cc1Nc1ncc2c(n1)n(C1CCOCC1)c(=O)n2C [AZD7648] + O=C(c1cc(Cc2n[nH]c(=O)c3ccccc23)ccc1F)N1CCN(C(=O)C2CC2)CC1 [Olaparib] (first compound max 10 µM, 7x7, partner max 10 µM)
result: 0.232
//
molecule: C[C@@H]1COCCN1c1cc(C2([S@](C)(=N)=O)CC2)nc(-c2ccnc3[nH]ccc23)n1 [AZD6738] + O=C(c1cc(Cc2n[nH]c(=O)c3ccccc23)ccc1F)N1CCN(C(=O)C2CC2)CC1 [Olaparib] (first compound max 10 µM, 7x7, partner max 10 µM)
result: 0.859

Moving on to the next molecule.
Query (molecule): CC1(C)CCC(CN2CCN(c3ccc(C(=O)NS(=O)(=O)c4ccc(NCC5CCOCC5)c([N+](=O)[O-])c4)c(Oc4cnc5[nH]ccc5c4)c3)CC2)=C(c2ccc(Cl)cc2)C1 [Venetoclax] + CN(C)CCCOc1ccc(-c2ccc3ncc4c(c3c2)n(C2CCOCC2)c(=O)n4C)cn1 [AZD0156] (first compound max 1 µM, 7x7, partner max 1 µM) ; field requested: combination Emax 0.217
